Assay Method Text: chemical genetic growth profiling, strain panel (AID 1159580);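 further: tested at 20 µM; growth read once vehicle control cultures reached saturation at 30 °C; 1 = growth at the plate median or of vehicle wells; lower values mean less growth of the strain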
Assay Context: S. cerevisiae deletion strains, growth OD, locus YJL187C, strain SWE1, active compounds read low
About 2,000 (36%) of roughly 5,500 compounds were called active. Not shown: some 18% with an inconclusive outcome. The list shows a part of the results.
Quantity Measured: normalized growth
Respond with the number and no other words.

| Molecule | normalized growth |
| --- | --- |
| O=C(O)CCS(=O)(=O)/C=C/c1ccccc1 | 0.992 |
| CC(=O)O[C@H]1CC[C@@]2(C)C(=CCC3C2CC[C@@]2(C)C3CC[C@@H]2C(C)CCCC(C)C)C1 (stereo partly specified) | 0.997 |
| CCOC(N)=O | 0.997 |

Query (molecule): CC[C@@H]1[C@@H](O)N2C3C[C@H]1C1C(O)[C@]4(C[C@@H]12)c1ccccc1N(C)[C@@H]34 (stereo partly specified) ; field requested: normalized growth
1.02

Quick check: normalized growth of "CCOC(=O)c1c(-c2ccc(F)cc2)csc1N" ?
0.903

Please give the measured normalized growth for this molecule: "COc1ccc(/C=C/C(=O)c2cc(O)ccc2O)cc1"
0.269

Numbers sourced from PubChem BioAssay AID1159580.
